pIC50: −log10 of the molar value.
Literature pIC50 values, system: Tyrosine-protein kinase Fyn (Homo sapiens).

Some solved cases for reference:
COc1cc(Nc2ncnc(-n3c(NC(C)c4ccc(F)cc4)nc4ccccc43)n2)cc(OC)c1OC (stereo not shown)
< 5.06
COc1cc(OC2CCN(C(C)C)CC2(F)F)c2c(Nc3c(F)ccc4c3OCO4)ncnc2c1 (racemic)
> 7.00
CS(=O)(=O)c1cccc(C(=O)Nc2ccc(F)c(CCc3cc(Nc4cnccn4)[nH]n3)c2)c1
7.62
CCN1CCC(Nc2ccc3c(c2)/C(=C(\c2cc(F)cc(F)c2)c2nc(C)c[nH]2)C(=O)N3)CC1
> 7.30
COc1ccc(Nc2nc3ccccc3n2-c2ncnc(Nc3cc(OC)c(OC)c(OC)c3)n2)cc1OC
< 5.07

-- ask Consider the compound COc1cc(Nc2ncnc(N(c3ccc(Cl)cc3)c3nc4ccccc4[nH]3)n2)cc(OC)c1OC . State its measured pIC50.
-- reply 5.32 to 6.10

-- ask Consider the compound COc1cc(OC2CCN(C)CC2(F)F)c2c(Nc3c(F)ccc4c3OCO4)ncnc2c1 (racemic) . State its measured pIC50.
-- reply > 7.00
